Below, each entry is listed with its recorded cytotoxicity at 10 µM.
- procedure summary: Toxicity liver stage against HepG2, at 10uM
- Type: cell-based
- Parameters: test concentration 10 uM, cell line HepG2-A16-CD81EGFP
- reported conditions: human, HepG2-A16-CD81EGFP cells; read-out: INHIBITION
API: value field is a number in %; no unit string.

compound	cytotoxicity at 10 µM / %
O=C1[C@@H]2C[C@H](O)CCN2C(=O)CN1CCSc1ccccn1	-2.96
COCCn1ccc2c(C(=O)NC3CN4CCC3CC4)cccc21 (stereo unspecified)	-51.6
CCn1ccnc1CN1CCCN(C(=O)C2(C#N)CCCCC2)CC1	3.75
Cc1nn(C)c(Cl)c1S(=O)(=O)N(C)C	3.66

What cytotoxicity at 10 µM value was documented for this compound, `O=C(CNCCn1cccn1)NCC1(c2ccccc2)CC1` ? 3.15

Item under review: COc1c(C2CCCN2C(=O)c2c(C)noc2C(C)C)c(C)nn1C (stereo unspecified) . Reported cytotoxicity at 10 µM? 8.88

###

- procedure summary: Toxicity liver stage against HepG2, at 10uM
- Type: cell-based
- Set-up: test concentration 10 uM, cell line HepG2-A16-CD81EGFP
- reported conditions: human, HepG2-A16-CD81EGFP cells; read-out: INHIBITION
Reported cytotoxicity at 10 µM is given for each of the following molecules.
Write your answer as a measured quantity: the number, then the unit.

See these solved cases before continuing.
molecule	value
O=C1NCC(C(=O)Nc2ncc(Cc3ccc(F)cc3)s2)N1 (centres undefined)	0.639%
Cc1cc(CN2CCN(Cc3ccc(C#N)cc3F)CC2)no1	1.71%
CCc1csc(C2CCCN(C(=O)c3ccc(=O)n(CC)n3)C2)n1 (centres undefined)	-1.52%
Cc1nc(CN2CCC(C(=O)O)(n3ccc(-c4ccco4)n3)CC2)co1	-12.1%
CC(=O)NCC(=O)N1CCCC1c1ccc(CN2CCOCC2)cn1 (centres undefined)	-2.3%
Cc1nccn1CCC1CCCCN1C(=O)c1ccc2[nH]nnc2c1 (centres undefined)	19.9%
CS(=O)(=O)C1CCN(S(=O)(=O)c2ccc(F)c(F)c2)C1 (centres undefined)	-9.52%
O=C(c1ccco1)N1CCOCC2(C1)CN(c1ccoc1)C(=O)CO2 (centres undefined)	-6.04%

Consider the molecule `Cn1ccnc1C(=O)NCCS(=O)(=O)c1ccc(C(C)(C)C)cc1` and give its measured cytotoxicity at 10 µM. 3.62%

Could you tell me which cytotoxicity at 10 µM is on file for `O=c1cc(CN2CCCC2)nc2n1CCCN(CC1CC1)C2` ? -111%

Suppose we examine the molecule `COCC(=O)NCc1cc(=O)n2c(n1)CN(Cc1ccsc1)CCC2` ; what cytotoxicity at 10 µM value has been reported? 0.281%

Report cytotoxicity at 10 µM for c1csc(-c2nc(CNC3CCc4ncnn4C3)co2)c1 (centres undefined) please. -5.69%

Data request, read-out cytotoxicity at 10 µM, for `C[C@@H](NC(=O)c1cccn1C)c1c(-c2ccc(Cl)cc2)noc1C(=O)O` 3%

Tell me the measured cytotoxicity at 10 µM of Cc1cnc(C)c(N2CCC3(CCCN(C4CCOCC4)C3=O)C2)n1 (centres undefined) , please. -124%

###

- procedure summary: Toxicity liver stage against HepG2, at 10uM
- Type: cell-based
- Design: test concentration 10 uM, cell line HepG2-A16-CD81EGFP
- reported conditions: human, HepG2-A16-CD81EGFP cells; read-out: INHIBITION
quantity name: cytotoxicity at 10 µM (%)
Use % as the unit, but write only the number.

compound	value
CCN(Cc1ccc2c(c1)OCO2)Cc1nc2c(cnn2C)c(=O)[nH]1	-21
CC(C)(C)c1ccc(-n2ncc3c2CCCC3N)cc1 (stereo not drawn)	-0.711
CCn1nc(C)c(C(=O)NCc2csc(C3CC3)n2)c1C	20.5

# lookup: cytotoxicity at 10 µM of `Cc1noc(C)c1S(=O)(=O)NC(=O)COc1cccc(C(C)C)c1` -10.7

What does the record list as cytotoxicity at 10 µM for `CCCNc1ncc(-c2cc(C3CC3)nc(N)c2C#N)cn1` ? 8.26

If you can, please state the reported cytotoxicity at 10 µM value of O=C(NCCN1CCOCC1)C(OC1CCCC1)c1ccccc1 (stereo not drawn) . -2.99

Recorded values, source ChEMBL document CHEMBL4513216.
